assay-protocol: Concentration of dissolved indolocarbazole obtained in aqueous solutions (HPLC)
experimental-parameters: peg 1000/ba/pvp/h2o, organic solvent or mixture, Concentration Obtained (saturation level), Example 21: 47.5% PEG 1000, 2.5% BA, 2.5% PVP, 47.5% H2O; 10 mg added

compound	solubility thermodynamic, mg/mL
COC(=O)C1(O)CC2OC1(C)n1c3ccccc3c3c4c(c5c6ccccc6n2c5c31)C(=O)NC4 (stereo not shown) [Compound K-252a]	14.1

###

assay-protocol: Concentration of dissolved indolocarbazole obtained in aqueous solutions (HPLC)
experimental-parameters: peg 600/ba/tween 80/h2o, organic solvent or mixture, Concentration Obtained, Example 17: 50% PEG 600, 2% BA, 10% Tween 80, 38% H2O; target 10 mg/ml

compound	unit-annotation	solubility thermodynamic
CN[C@@H]1C[C@H]2O[C@@](C)([C@@H]1OC)n1c3ccccc3c3c4c(c5c6ccccc6n2c5c31)C(=O)NC4 [Staurosporine, staurosporine]	µg/mL	4600
COC(=O)C1(O)CC2OC1(C)n1c3ccccc3c3c4c(c5c6ccccc6n2c5c31)C(=O)NC4 (centres unmarked) [Compound K-252a]	µg/mL	8830

Data provenance: patent US5599808A
